- studyTarget: human DLK (Homo sapiens, UniProt Q12852)
- Sequence (Q12852 whole entry): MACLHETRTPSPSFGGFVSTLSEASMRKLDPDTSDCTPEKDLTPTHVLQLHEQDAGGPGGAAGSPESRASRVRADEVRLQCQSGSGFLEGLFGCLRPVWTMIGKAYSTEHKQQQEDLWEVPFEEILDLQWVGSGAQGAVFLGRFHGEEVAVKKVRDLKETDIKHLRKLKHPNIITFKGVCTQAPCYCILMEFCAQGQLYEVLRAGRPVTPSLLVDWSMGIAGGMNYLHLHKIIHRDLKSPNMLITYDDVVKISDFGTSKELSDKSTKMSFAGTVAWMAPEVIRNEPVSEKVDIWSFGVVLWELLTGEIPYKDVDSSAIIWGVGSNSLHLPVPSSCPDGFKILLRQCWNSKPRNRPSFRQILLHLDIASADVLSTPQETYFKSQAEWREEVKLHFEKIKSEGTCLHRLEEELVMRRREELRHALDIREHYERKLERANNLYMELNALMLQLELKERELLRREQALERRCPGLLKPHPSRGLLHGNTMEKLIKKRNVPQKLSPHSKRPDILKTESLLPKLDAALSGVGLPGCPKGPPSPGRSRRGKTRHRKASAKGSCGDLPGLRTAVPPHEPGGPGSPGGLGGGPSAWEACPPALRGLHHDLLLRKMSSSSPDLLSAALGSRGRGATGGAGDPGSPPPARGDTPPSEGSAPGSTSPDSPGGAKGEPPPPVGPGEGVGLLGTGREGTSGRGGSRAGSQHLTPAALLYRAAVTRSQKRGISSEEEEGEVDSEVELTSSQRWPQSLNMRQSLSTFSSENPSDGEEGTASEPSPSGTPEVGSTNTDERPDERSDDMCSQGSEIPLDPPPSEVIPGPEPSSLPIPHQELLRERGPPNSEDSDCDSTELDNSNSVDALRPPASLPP
- testName: DLK Kd Determinations (KINOMEscan KdELECT, DiscoveRx)
- Design: full length of human DLK (amino acids 1-859); host or cells: transiently transfected HEK293 cells; unpurified extract
- experimentalParameters: fusion protein of full length human DLK (amino acids 1-859) and NFkB DNA binding domain; qPCR readout; duplicate
Kd values, listed per item

compound: CC(C)c1nc(-c2cnc(N)c(OC(F)(F)F)c2)cn1[C@H]1[C@@H]2CC(N3CCN(CCF)CC3)C[C@@H]21 (single isomer, unassigned) [Example 156a]
Kd / nM: 30
--
compound: Nc1ncc(-c2cn([C@H]3[C@@H]4CN(CC(F)(F)F)C[C@@H]43)c(CC3CC3)n2)cc1OC(F)F [Example 102]
Kd / nM: 280
--
compound: CC(=O)N1C[C@@H]2[C@H](C1)[C@H]2n1cc(-c2cnc(N)c(OC(F)F)c2)nc1CC1CC1 [Example 115]
Kd / nM: 200
--
compound: CN1CCN(C2C[C@@H]3[C@H](C2)[C@H]3n2cc(-c3cnc(N)c(C(F)(F)F)c3)nc2C2CC2)CC1 (single isomer, unassigned) [Example 129b]
Kd / nM: 16
--
compound: Nc1ncc(-c2cn([C@H]3[C@@H]4CC(N5CCCOCC5)C[C@@H]43)c(C3CC3)n2)cc1C(F)(F)F (single isomer, unassigned) [Example 141a]
Kd / nM: 26
--
compound: CC(C)c1nc(-c2cnc(N)c(C(F)(F)F)c2)cn1CC1CCOCC1 [Example 34]
Kd / nM: 870

---

Some compounds, each annotated with its measured IC50.
- studyTarget: human DLK (Homo sapiens)
- testName: Phospho-cJun Cellular Assay
- experimentalParameters: HEK293 cells stably transfected with Dox-inducible human DLK; p-cJun (Ser63); 5 h compound incubation

compound: CC(C)c1nc(-c2cnc(N)c(OC(F)(F)F)c2)cn1[C@H]1[C@@H]2CC(N3CCN(CCF)CC3)C[C@@H]21 (single isomer, unassigned) [Example 156a]
unitsLabel: nM
IC50: 747

compound: CC1COCCN1C1CC2C(C1)C2n1cc(-c2cnc(N)c(OC(F)(F)F)c2)nc1C1CC1 (stereo not drawn)
unitsLabel: nM
IC50: 893

compound: CC(C)c1nc(-c2cnc(N)c(OC(F)(F)F)c2)cn1[C@H]1[C@@H]2CC(N3CCOCC3)C[C@@H]21 (single isomer, unassigned) [Example 19b]
unitsLabel: nM
IC50: 493

---

- studyTarget: human DLK (Homo sapiens)
- testName: DLK Kd Determinations (KINOMEscan KdELECT, DiscoveRx)
- experimentalParameters: fusion protein of full length human DLK (amino acids 1-859) and NFkB DNA binding domain; qPCR readout; duplicate
Each entry below carries its recorded Kd.

compound: CN1CCN(C2C[C@@H]3[C@H](C2)[C@H]3n2cc(-c3cnc(N)c(C(F)(F)F)c3)nc2CC2CC2)CC1 (single isomer, unassigned) [Example 161a]
Kd, nM: 19
//
compound: Nc1ncc(-c2cn([C@H]3[C@@H]4CN(CC(F)(F)F)C[C@@H]43)c(CC(F)(F)F)n2)cc1C(F)(F)F [Example 124]
Kd, nM: 240
//
compound: COCCN1C[C@@H]2[C@H](C1)[C@H]2n1cc(-c2cnc(N)c(OC(F)F)c2)nc1C1CC1 [Example 107]
Kd, nM: 74
//
compound: CC(C)Cc1nc(-c2cnc(N)c(OC(F)(F)F)c2)cn1[C@H]1[C@@H]2CC(N3CCN(CCF)CC3)C[C@@H]21 (single isomer, unassigned) [Example 159b]
Kd, nM: 49
//
compound: Nc1ncc(-c2cn([C@H]3[C@@H]4CN(CCF)C[C@@H]43)c(CC3CC3)n2)cc1OC(F)(F)F [Example 101]
Kd, nM: 81
//
compound: CCCc1nc(-c2cnc(N)c(C(F)(F)F)c2)cn1[C@H]1[C@@H]2CN(CCF)C[C@@H]21 [Example 84]
Kd, nM: 160
//
compound: Nc1ncc(-c2cn([C@H]3[C@@H]4CNC[C@@H]43)c(C3CC3)n2)cc1OC(F)(F)F [Example 53]
Kd, nM: 57
//
compound: Nc1ncc(-c2cn([C@H]3[C@@H]4CC(N5CCN(CCF)CC5)C[C@@H]43)c(C3CC3)n2)cc1OC(F)(F)F (single isomer, unassigned) [Example 154b]
Kd, nM: 17
//
compound: CC(C)c1nc(-c2cnc(N)c(OC(F)(F)F)c2)cn1[C@H]1[C@@H]2CC(N3CCCOCC3)C[C@@H]21 (single isomer, unassigned) [Example 20a]
Kd, nM: 15
//
compound: CC(C)c1nc(-c2cnc(N)c(OC(F)(F)F)c2)cn1[C@H]1C2CC(N3C[C@@H]4C[C@H]3CO4)C[C@@H]21 (stereo in doubt) [Example 134]
Kd, nM: 33
//
compound: COCCN1C[C@@H]2[C@H](C1)[C@H]2n1cc(-c2cnc(N)c(OC(F)F)c2)nc1C(C)C [Example 55]
Kd, nM: 240
//
compound: CC(C)c1nc(-c2cnc(N)c(C(F)(F)F)c2)cn1C1CCC(O)CC1 (stereo not shown) [Example 33]
Kd, nM: 130
//
compound: CC1COCCN1C1CC2C(C1)C2n1cc(-c2cnc(N)c(OC(F)(F)F)c2)nc1C1CC1 (stereo not shown) [Example 147]
Kd, nM: 23
